Cited source: the supplement of paper PMC8728848

- measurement.target: Fuc(a1-2)Gal(b1-4)GlcNAc6S
- experiment: glycan array binding signal (z-score within array); higher = stronger binding
- test.context: glycan notation: IUPAC condensed, linker removed
Only a selection was taken, and the strongest signals are over-represented in it overall.
measurement.kind: glycan array binding signal (z-score)
The answer should be a number; do not append a unit.

-- ask Need glycan array binding signal (z-score) of AAL (Aleuria aurantia), P18891 (protein) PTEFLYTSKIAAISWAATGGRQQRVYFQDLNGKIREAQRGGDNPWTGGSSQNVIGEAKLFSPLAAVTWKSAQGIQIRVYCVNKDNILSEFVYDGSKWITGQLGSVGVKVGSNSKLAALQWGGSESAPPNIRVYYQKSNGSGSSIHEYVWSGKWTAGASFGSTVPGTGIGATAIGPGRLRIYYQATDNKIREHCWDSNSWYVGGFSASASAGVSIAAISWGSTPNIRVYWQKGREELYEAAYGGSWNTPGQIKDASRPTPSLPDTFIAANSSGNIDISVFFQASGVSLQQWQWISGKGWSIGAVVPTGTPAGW , thanks.
-- reply 2.6
